test: Fraction unbound in NMRI mouse plasma at 30 mg/kg, iv by UPLC-MS/MS analysis; format: ADME, organism-based
Measurement Name: fraction unbound
The answer should be written as a number, with no unit following it.

Entry Smiles: CC(=O)Nc1ccc2[nH]c(=O)n([C@H]3CC[C@H](C(C)C)CC3)c(=O)c2c1
Reported Result: 0.028

Switching to the query record.
# input Return reported fraction unbound. Input compound: "CC(C)(C)[C@H]1CC[C@H](n2c(=O)[nH]c3ccc(N)cc3c2=O)CC1"
# output 0.011

----------
test: Selectivity ratio, EC50 for cytotoxicity against rat L6 cells to EC50 for antitrypanosomal activity against Trypanosoma cruzi Tulahuen strain C2C4 trypomastigotes infected in rat L6 cells; assay type: toxicity, cell-based; conditions: read-out: Ratio EC50
Measurement Name: selectivity ratio
The answer should be written as a number, with no unit following it.

Molecule: CCC[C@H]1CC[C@H](n2c(=O)[nH]c3ccc(NC(C)=O)cc3c2=O)CC1
Measurement Name: selectivity ratio
Reported Result: 730

Molecule: CC[C@H]1CC[C@@H](n2c(=O)[nH]c3ncc(N)cc3c2=O)CC1
Measurement Name: selectivity ratio
Reported Result: 210

Molecule: CC(=O)Nc1ccc2[nH]c(=O)n(C3CCN(C(=O)OC(C)(C)C)C3)c(=O)c2c1 (racemic)
Measurement Name: selectivity ratio
Reported Result: 3.1

Molecule: CC(=O)Nc1ccc2[nH]c(=O)n([C@H]3CC[C@H](C(C)C)CC3)c(=O)c2c1
Measurement Name: selectivity ratio
Reported Result: 150

Molecule: CC[C@H]1CC[C@@H](n2c(=O)[nH]c3ccc(NC(C)=O)cc3c2=O)CC1
Measurement Name: selectivity ratio
Reported Result: 460

# input Return reported selectivity ratio. Input molecule: "CC[C@H]1CC[C@@H](n2c(=O)[nH]c3ncc(NC(C)=O)cc3c2=O)CC1"
# output 150

# input Return reported selectivity ratio. Input molecule: "CC(=O)Nc1ccc2[nH]c(=O)n([C@H]3CC[C@H](OC(C)C)CC3)c(=O)c2c1"
# output 44

# input Return reported selectivity ratio. Input molecule: "CC(=O)Nc1ccc2[nH]c(=O)n(C3CCN(C(=O)OC(C)(C)C)CC3)c(=O)c2c1"
# output 4.2

# input Return reported selectivity ratio. Input molecule: "CC(=O)Nc1ccc2[nH]c(=O)n([C@H](C)C3CCCCC3)c(=O)c2c1"
# output 40
